Overview of reported growth across a group of compounds:
- Tested on: SNB-19 CNS
- procedureText: NCI-60 one-dose screen, 48 h (100 = growth as untreated, 0 = no growth, -100 = all killed)
- particulars: 10 µM unless noted
Compounds without any hit were thinned out: in the full panel of roughly 83,000, 20% have a hit.
endpoint: growth (%)

In [3]: df
Out[3]:
                                    compound  testvalue
 0  C=C1[C@@H](C)[C@H]2[C@H](Cc3ccccc3)NC(=O)[C@]23[C@@H](O)/C=C/[C@@](C)(O)C(=O)[C@@H](C)C/C=C/[C@H]3[C@@H]1O       40.7
 1  O=C1NC(=O)C(=Cc2cn(CCCCCCn3c4ccccc4c(=O)c4ccccc43)c3ccccc23)C(=O)N1         86
 2  O=C(O)c1ccc([S-])cc1.[Au+].c1ccc(CN2[CH-]N(Cc3ccccc3)C(c3ccccc3)=C2c2ccccc2)cc1      -66.8
 3  COc1cc2c(cc1OCCCn1c(-c3ccccn3)nc3ccccc31)N=C[C@@H]1CCCN1C2=O       27.2
 4  COc1ccc(/C(C)=C(\c2ccc(OCCN3CCOCC3)cc2)c2ccc(OC(=O)Cc3ccccc3)cc2)cc1        111
 5                           OCCCCCNC1CCCCC1        112
 6   ClCCN(CCCl)c1ccc(-n2cnc3c(Cl)ncnc32)cc1       79.2
 7  COc1ccc(S(=O)(=O)N(Cc2ccc3c(c2)C=CC(C)(C)O3)c2ccccc2)cc1OC       93.7
 8  CC1(C)N=C(N)N=C(N)N1c1ccc(CCCCc2ccc(Cl)c(S(=O)(=O)F)c2)c(Cl)c1       31.6
 9  O=C(N/N=C\c1ccc(N(CCCl)CCCl)cc1)c1cccc([N+](=O)[O-])c1       77.3
10          COc1ccc(O)c(CNC(=O)CN2CCCC2=O)c1        103
11  CCC(CC)CC1(C)CC2(C)CCOC2OO1 (stereo unspecified)        103
12  N#CC1(C#N)C(c2ccc(N(CCCl)CCCl)cc2)OC23CCCCC2C1(C#N)C(=N)O3 (stereo unspecified)       84.4
13  COc1ccc(C2=CC(c3ccc(OC)c(OC)c3)c3c(c4ccccc4oc3=O)O2)cc1OC (stereo unspecified)       17.9
14           CC(=O)Oc1ccccc1C(=O)NCCC[Se]C#N      -70.3
15  CC[C@H](C)[C@H](NC(=O)c1cccn1C)C(=O)N(C)[C@H](C[C@@H](OC(C)=O)c1nc(C(=O)N[C@@H](Cc2ccccc2)C[C@H](C)C(=O)OC)cs1)C(C)C       35.4

###

// reported growth per item
- Tested on: SF-268 CNS
- procedureText: NCI-60 one-dose screen, 48 h (100 = growth as untreated, 0 = no growth, -100 = all killed)
- particulars: 10 µM unless noted
The panel holds about 83,000 compounds, 20% with a hit somewhere; the sample as a whole holds those more often.
endpoint: growth (%)

>>> df
                                    molecule  endpoint  unitabbrev  testvalue
 0  CC1=C(CCCOC(=O)CN)C2=C(C)C3(CC3)[C@@](C)(O)C(=O)C2=C1    growth           %       48.7
 1  [Au+].[N-]=C=O.c1ccc(CN2[CH-]N(Cc3ccccc3)C(c3ccccc3)=C2c2ccccc2)cc1    growth           %       84.5
 2  COC(=O)[C@@H](C)C[C@H](Cc1ccccc1)NC(=O)c1cccc([C@@H](C[C@H](C(C)C)N(C)C(=O)[C@@H](NC(=O)[C@H]2CCCCN2C)C(C)C)OC(C)=O)n1    growth           %       30.8
 3  CC[C@H](C)[C@H](NC(=O)[C@H]1CCCCN1C)C(=O)N(C)[C@H](CC(=O)c1nc(C(=O)N[C@@H](Cc2ccccc2)C[C@H](C)C(=O)O)cs1)C(C)C    growth           %       84.2
 4  CCOC(=O)[C@@H](C)C[C@H](Cc1ccccc1)NC(=O)c1csc([C@@H](C[C@H](C(C)C)N(C)C(=O)[C@H](CCC(C)C)NC(=O)[C@H]2CCCCN2C)OC(C)=O)n1    growth           %       22.1
 5  CCn1nccc1NC(=O)C(=O)c1cn(Cc2ccc(F)cc2)c2cccc(OC)c12    growth           %       98.1
 6  O=C1NC(=O)C(=Cc2cn(CCCCCCn3c4ccccc4c(=O)c4ccccc43)c3ccccc23)C(=O)N1    growth           %       94.5
 7                      Fc1ccc(C2=CCNCC2)cc1    growth           %       96.8
 8  CCCCNC(c1ccc(Cl)cc1)C(O)c1ccc(Cl)cc1 (stereo not given)    growth           %       55.9
 9         Cc1cc(N(CCCl)CCCl)ccc1C=Nc1cccnc1    growth           %       80.4
10  O=C(CC1(O)C(=O)N(Cc2ccccc2)c2ccc(Cl)cc21)c1ccc(C(=O)NCC2CCC3(CC2)OOC2(CCCCC2)OO3)cc1 (stereo not given)    growth           %      -49.6
11                 C[N+](C)(C)Cc1cc(Cl)ccc1O    growth           %        106
12  CCCCCCCCCCCCCC[P+](CCCCCC)(CCCCCC)CCCCCC    growth           %       -4.6
13  CC12CC(=O)C3(SC#N)C(CCC4=CC(=O)CCC43C)C1CCC2=O (stereo not given)    growth           %        101
14  CC1=C(CN)C2=C(C)C3(CC3)[C@@](C)(O)C(=O)C2=C1    growth           %       72.1
15     CCC(O)(CN)c1ccccc1 (stereo not given)    growth           %        100
16  O=C1OCC2=C1C(c1ccccc1)c1cc3c(cc1N2)OCO3 (stereo not given)    growth           %       10.4
17  CC1(C)CN1P(=O)(N1CC1(C)C)N1CC1(C)C (stereo not given)    growth           %        106
18  CC1=C(CCCOC(=O)[C@H](N)CC(C)C)C2=C(C)C3(CC3)[C@@](C)(O)C(=O)C2=C1    growth           %       14.6
19  COc1cc(/C=C\c2cc(OC)c(OC)c(OC)c2)cc(NS(=O)(=O)c2cccc(Cl)c2)c1OC    growth           %      -2.74
20                  C[N+]12CN3CN(CN(C3)C1)C2    growth           %        106
21               CS(=O)(=O)CCN1CC2CCCC(C2)C1    growth           %        102
22  COc1ccc2c(c1)c(-c1nc(-c3c[nH]c4ncccc34)cs1)cn2CCN1CCOCC1    growth           %       60.9
23  C[C@]12CCc3nc(Nc4ccccc4F)sc3C1=CC[C@@H]1[C@@H]2CC[C@]2(C)C(=O)CC[C@@H]12    growth           %       78.8
24  COC(=O)[C@@H](NC(=O)c1cn(CCC2CCCCC2)c2ccccc12)C(C)(C)C    growth           %       68.5
25  COc1ccc(N(CC(=O)NCCC[Te]c2ccccc2)C(=O)CNC(=O)OC(C)(C)C)cc1    growth           %       24.2
26               CCOP(=O)(Cc1ccc(C#N)cc1)OCC    growth           %        112
27      O=C(Nc1ccncc1F)c1cn(CC2CC2)c2ccccc12    growth           %        105
28  CC(=O)O[C@H](C[C@H](C(C)C)N(C)C(=O)[C@@H](NC(=O)[C@H]1CCCCN1C)C(C)C)c1nc(C(=O)N[C@@H](Cc2ccccc2)C[C@H](C)C(=O)O)c(C)s1    growth           %       29.7
29  C[C@@H]1C[C@@]2(C)[C@@H](CC[C@@H]3[C@@H]2CC[C@]2(C)C(=O)CC[C@@H]32)CC1=O    growth           %        102

###

- System: NCI-H23 lung
- procedureText: NCI-60 one-dose screen, 48 h (100 = growth as untreated, 0 = no growth, -100 = all killed)
- particulars: 10 µM unless noted
This is part of a sample that, as a whole, favours compounds with a hit. Of some 83,000 tested, about 20% had one in any assay.
Documented growth across a set of compounds

compound	assaySystem	growth, %
COc1cc2c(cc1OCCCn1c(-c3ccccn3)nc3ccccc31)N=C[C@@H]1CCCN1C2=O	NCI-H23 lung	15
CCCCN1CCCC[C@@H]1C(=O)N[C@H](C(=O)N(C)[C@H](C[C@@H](OC(C)=O)c1nc(C(=O)NC2CCC(C(=O)OC)CC2)cs1)C(C)C)C(C)C (stereo partly drawn)	NCI-H23 lung	48.4
CC[C@H](C)[C@H](NC(=O)[C@H]1CCCCN1C)C(=O)N(C)[C@H](C[C@@H](OC(C)=O)c1nc(C(=O)N[C@@H](Cc2ccccc2)C[C@H](C)C(=O)OC)cs1)C(C)C	NCI-H23 lung	11.8
